Recorded measurements of differential viability (reversal), one per entry
METHOD: reversal of MRP1-mediated doxorubicin resistance, pilot screen, H69AR cells, doxorubicin co-treatment (AID 601)
CONDITION PARAMETERS: H69AR cells + 2 uM doxorubicin, CellTiter-Glo, 72 h; at 10 µM; stronger effect = higher value
The figure you give is taken to be in %; do not add the unit.

1) CCOC(=O)c1nn(-c2sc(C(=O)OC)c(C)c2C(=O)OC)cc1O	3.34

If you can, please state the reported differential viability (reversal) value of CCC(CC)C1C(C#N)=C(N)Oc2n[nH]c(C)c21 (configuration not stated) .
-44.6

Entry to check: CCCc1cc(C(=O)Nc2ccccc2C(=O)OC)no1
7.36

Entry to check: Cc1cc(NC(=O)c2cc(-c3ccco3)on2)n(-c2ccccc2)n1
13

Entry to check: Cc1sc2nc3n(c(=O)c2c1C)NC(=O)CC3
5.63

Entry to check: CCOC(=O)N1CCC(NC(=O)Cc2ccc(-n3c(=O)[nH]c4ccccc4c3=O)cc2)CC1
7.9

Entry to check: CCCCc1nc2n[nH]c(N)c2c2c1CCCC2
6.68

Entry to check: CN(Cc1ccccc1)C(=O)c1cc(-c2ccc(Br)cc2)on1
7.97

Entry to check: O=C1c2ccccc2-c2ccc(C(=O)N3CCOCC3)cc21
-2.82

Entry to check: Cc1cc(=O)n2nc(N3CCC(C(=O)N4CCN(Cc5ccccc5)CC4)CC3)sc2n1
7.01

Entry to check: Cn1c(=O)c2c(nc(NCc3ccco3)n2C/C=C/c2ccccc2)n(C)c1=O
5.26

Entry to check: CCOC(=O)CN1CC23C=CC(O2)C(C(=O)NCc2ccc(F)cc2)C3C1=O (configuration not stated)
12.5

Entry to check: COC(=O)c1[nH]c2ccc(C)cc2c1NC(=O)CN1CCCC(C)(C)C1
-3

* * *

Recorded measurements of viability, one per entry
METHOD: reversal of MRP1-mediated doxorubicin resistance, pilot screen, H69AR cells, doxorubicin co-treatment (AID 601)
CONDITION PARAMETERS: H69AR cells + 2 uM doxorubicin, CellTiter-Glo, 72 h; measured here: viability with 2 uM doxorubicin; at 10 µM; stronger effect = lower value
The figure you give is taken to be in %; do not add the unit.

Worked cases, answers included:
1) Cc1c(N(C)C)nc2ccccc2c1N	89.7
2) Cc1ccc(C2CC(c3cccc(Br)c3)Nc3nnnn32)cc1 (centres undefined)	85
3) CCOC(=O)C1/C(=N\O)CC(C)(O)C(C(=O)OCC)C1c1ccc(N(C)C)cc1 (centres undefined)	101

If you can, please state the reported viability value of COc1cccc(CN=CC2=C(O)CC(C)(C)CC2=O)c1OC .
101

Entry to check: CCSc1nnc(-c2ccc(OC)cc2)o1
91.6

Entry to check: O=C(Nc1ncc2c(n1)CC(c1ccccc1)CC2=O)c1ccco1 (centres undefined)
76.7

* * *

METHOD: growth suppression of yeast trafficking mutant, preliminary HTS, modulators of trafficking downstream of Golgi apparatus project, 1536-format plate, OD 615 nm (AID 637)
CONDITION PARAMETERS: yeast transport mutant growth, absorbance 615 nm, 18 h; stronger effect = higher value
READOUT LABEL: inhibition (%)
The figure you give is taken to be in %; do not add the unit.

Worked cases, answers included:
1) O=C(Nc1ccccc1)N(Cc1cccnc1)Cc1ccco1	1.75
2) CC(=O)c1cccc(NC(=O)NCc2ccco2)c1	2.36
3) O=C(Cc1cccs1)N(c1ccccc1)C1C=CS(=O)(=O)C1 (stereo unspecified)	-1.64
4) CC(C)c1ccc(CNc2ccc(N3CCOCC3)cc2)cc1	-5.82
5) CC(=O)OCC(=O)[C@@]1(O)CC[C@H]2[C@@H]3CCC4=CC(=O)CC[C@]4(C)[C@H]3[C@@H](O)C[C@@]21C	-1.17
6) Cc1ccc2c(c1)N(CC(=O)N1CCCCC1c1cccnc1)C(=O)CO2 (stereo unspecified)	-5.82

If you can, please state the reported inhibition value of O=C(NCc1cccs1)c1cc2c(s1)CS(=O)(=O)C2 .
-1.64

Entry to check: COC(=O)c1[nH]c2ccc(C)cc2c1NC(=O)CN1CCN(C(=O)c2ccccc2)CC1
-0.36

Entry to check: CN1CCN(C(=O)c2ccc3c(=O)n(CCc4ccccc4)c(=S)[nH]c3c2)CC1
-2.46

Entry to check: Cc1c(C=NCCOCc2ccccc2)cnn1C
-0.48

Entry to check: COc1ccccc1NC(=O)Cc1noc(CSc2cc(C)c3ccccc3n2)n1
1.64
